Molecular target: PI3Kγ (p120γ) (Homo sapiens, UniProt P48736)
Construct: purchased BPS Bioscience (San Diego, Calif.) or Millipore (Billerica, Mass.)
Sequence (P48736 whole entry): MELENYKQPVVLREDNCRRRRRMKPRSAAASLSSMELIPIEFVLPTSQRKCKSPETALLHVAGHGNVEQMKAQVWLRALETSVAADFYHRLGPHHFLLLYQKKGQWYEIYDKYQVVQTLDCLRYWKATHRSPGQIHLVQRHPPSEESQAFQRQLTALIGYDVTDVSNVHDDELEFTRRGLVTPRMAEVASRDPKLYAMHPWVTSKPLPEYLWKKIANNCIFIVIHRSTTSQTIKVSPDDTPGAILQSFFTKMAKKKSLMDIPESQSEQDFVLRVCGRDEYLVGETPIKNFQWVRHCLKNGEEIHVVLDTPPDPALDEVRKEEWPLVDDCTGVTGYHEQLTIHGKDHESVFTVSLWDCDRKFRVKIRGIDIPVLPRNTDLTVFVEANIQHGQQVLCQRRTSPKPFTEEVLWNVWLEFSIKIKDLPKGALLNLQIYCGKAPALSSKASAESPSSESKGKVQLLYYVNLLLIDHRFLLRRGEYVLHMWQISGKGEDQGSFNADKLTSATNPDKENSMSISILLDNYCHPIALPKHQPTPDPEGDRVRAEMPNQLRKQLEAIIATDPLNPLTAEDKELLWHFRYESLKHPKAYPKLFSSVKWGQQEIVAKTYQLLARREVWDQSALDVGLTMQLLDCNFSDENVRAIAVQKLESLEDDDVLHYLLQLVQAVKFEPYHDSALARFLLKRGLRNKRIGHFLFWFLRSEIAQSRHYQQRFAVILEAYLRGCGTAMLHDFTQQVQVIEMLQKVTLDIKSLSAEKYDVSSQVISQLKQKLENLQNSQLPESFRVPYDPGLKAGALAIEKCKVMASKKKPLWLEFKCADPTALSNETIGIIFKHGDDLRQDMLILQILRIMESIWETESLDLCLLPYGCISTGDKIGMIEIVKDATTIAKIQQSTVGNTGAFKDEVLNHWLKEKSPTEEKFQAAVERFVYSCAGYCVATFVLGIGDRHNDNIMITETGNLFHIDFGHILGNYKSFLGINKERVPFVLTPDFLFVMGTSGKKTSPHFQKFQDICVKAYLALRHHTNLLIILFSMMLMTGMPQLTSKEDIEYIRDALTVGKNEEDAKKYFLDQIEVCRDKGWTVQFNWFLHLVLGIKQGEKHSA
Experiment: HTRF assay, potency against active PI3Kγ
Type: biochemical
Conditions: [ATP]=50 μM, [di-C8-PIP2]=10 μM, 30 min pre-incubation, read-out: PI3Kγ Inhibition
Provide the recorded IC50 for the entries that follow.

// input: 5 compounds below; output: IC50 for each
1. C=CC(=O)NC1CCC(C(=O)N(C)Cc2cc3nc(-c4cccc(O)c4)nc(N4CCOCC4)c3s2)CC1 (racemic)
2. CCC(=O)Nc1ccc(CCNC(=O)c2cc3nc(-c4cccc5[nH]ncc45)nc(N4CCOCC4)c3s2)cc1
3. C=CC(=O)N1CCN(c2ccc(-c3cc4nc(-c5cccc(O)c5)nc(N5CCOCC5)c4s3)cc2)CC1
4. C=CC(=O)NCCS(=O)(=O)N1CCN(Cc2cc3nc(-c4cccc5[nH]ncc45)nc(N4CCOCC4)c3s2)CC1
5. C=CC(=O)NCCS(=O)(=O)N1CCN(Cc2cc3nc(-c4cccc(O)c4)nc(N4CCOCC4)c3s2)CC1

["100 to 1000 nM", "> 1000 nM", "> 1000 nM", "> 1000 nM", "100 to 1000 nM"]

// input: 2 compounds below; output: IC50 for each
1. CC(C)=CC(=O)CCCC(=O)N1CC=C(c2cc3nc(-c4cnc(N)nc4)cc(N4CCOCC4)c3s2)CC1
2. C=C(C)C(=O)CCC(=O)N1CCN(Cc2cc3nc(-c4cccc5[nH]ncc45)nc(N4CCOCC4)c3s2)CC1

["100 to 1000 nM", "> 1000 nM"]
